Property: responders at 300 mg/kg; scope: individual compounds
# Tested on: scMET model (pentylenetetrazole, Metrazol)
# Procedure Details: scMET test (subcutaneous Metrazol)
# Type: in vivo, mouse
# Particulars: Mus musculus; scMET; 300 mg/kg ip; 0.5 h; read-out: number of animals protected/number of animals tested

>  <Compound>
CCC(C)c1cc(C(O)C(F)(F)F)cc(Br)c1O (centres unmarked)

>  <responders at 300 mg/kg / %>
0

$$$$
>  <Compound>
CC(C)c1cc(C(O)C(F)(F)F)ccc1O (centres unmarked)

>  <responders at 300 mg/kg / %>
100

$$$$
>  <Compound>
CCCc1cc(C(O)C(F)(F)F)ccc1O (centres unmarked)

>  <responders at 300 mg/kg / %>
100

$$$$
>  <Compound>
CCc1cc(C(O)C(F)(F)F)ccc1O (centres unmarked)

>  <responders at 300 mg/kg / %>
0

$$$$
>  <Compound>
Cc1cc(C(O)C(F)(F)F)ccc1O (centres unmarked)

>  <responders at 300 mg/kg / %>
0

$$$$
>  <Compound>
CCCc1cc(C(O)C(F)(F)F)cc(Br)c1O (centres unmarked)

>  <responders at 300 mg/kg / %>
0

$$$$
>  <Compound>
CCC(C)c1cc(C(O)C(F)(F)F)ccc1O (centres unmarked)

>  <responders at 300 mg/kg / %>
100

$$$$
>  <Compound>
CC(C)c1cc(C(O)C(F)(F)F)cc(Br)c1O (centres unmarked)

>  <responders at 300 mg/kg / %>
0

$$$$

---

# Test system: maximal electroshock (MES) model
# Procedure Details: maximal electroshock (MES) model
# Format: in vivo, mouse
# Particulars: Mus musculus; MES; 300 mg/kg ip; 4 h; read-out: number of animals protected/number of animals tested
Readout: responders at 300 mg/kg (%)

>  <Compound>
CCCc1cc(C(O)C(F)(F)F)cc(Br)c1O (centres unmarked)

>  <Display Unit>
%

>  <Result Value>
0

$$$$
>  <Compound>
CC(C)c1cc(C(O)C(F)(F)F)cc(Br)c1O (centres unmarked)

>  <Display Unit>
%

>  <Result Value>
0

$$$$
>  <Compound>
CC(C)c1cc(C(O)C(F)(F)F)ccc1O (centres unmarked)

>  <Display Unit>
%

>  <Result Value>
100

$$$$
>  <Compound>
Cc1cc(C(O)C(F)(F)F)ccc1O (centres unmarked)

>  <Display Unit>
%

>  <Result Value>
100

$$$$
>  <Compound>
CCC(C)c1cc(C(O)C(F)(F)F)ccc1O (centres unmarked)

>  <Display Unit>
%

>  <Result Value>
0

$$$$
>  <Compound>
CCC(C)c1cc(C(O)C(F)(F)F)cc(Br)c1O (centres unmarked)

>  <Display Unit>
%

>  <Result Value>
0

$$$$
>  <Compound>
CCc1cc(C(O)C(F)(F)F)ccc1O (centres unmarked)

>  <Display Unit>
%

>  <Result Value>
0

$$$$
>  <Compound>
CCCc1cc(C(O)C(F)(F)F)ccc1O (centres unmarked)

>  <Display Unit>
%

>  <Result Value>
100

$$$$
